biological target: Neurotensin receptor type 1 (Homo sapiens) (UniProt P30989); assay: agonism at neurotensin receptor 1, calcium rise – cell-based, fluorescence, calcium flux, single concentration, SAR follow-up (AID 602466); settings: NTR1-expressing cells, at 30 µM (top of the series)
Sequence (P30989 whole entry, looked up): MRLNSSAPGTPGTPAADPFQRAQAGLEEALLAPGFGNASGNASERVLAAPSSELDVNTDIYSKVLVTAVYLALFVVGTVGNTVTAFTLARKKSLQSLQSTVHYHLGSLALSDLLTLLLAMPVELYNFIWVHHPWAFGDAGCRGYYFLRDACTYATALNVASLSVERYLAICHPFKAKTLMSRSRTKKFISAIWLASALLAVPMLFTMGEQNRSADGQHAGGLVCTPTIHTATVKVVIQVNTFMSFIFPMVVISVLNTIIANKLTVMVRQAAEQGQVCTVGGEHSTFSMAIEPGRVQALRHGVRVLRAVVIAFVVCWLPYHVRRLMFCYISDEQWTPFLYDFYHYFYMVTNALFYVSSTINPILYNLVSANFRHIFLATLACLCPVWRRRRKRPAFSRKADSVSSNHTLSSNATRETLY
Activity calls are given as the source filed them. The rule behind the calls is not given here.
Permitted responses: active, inactive

Worked examples follow.
# STRUCTURE STRING, CAT
records = [
    ("COc1cccc(OC)c1-c1nc(C(=O)N[C@@H](CC(C)C)C(=O)O)cn1-c1ccnc2cc(Cl)ccc12", "active"),
    ("COc1cc2c3nnc(-c4ccc(C)cc4)c-3cn(Cc3ccc(F)cc3)c2cc1OC", "active"),
    ("COc1cc2c3nnc(-c4ccc(F)cc4)c-3cn(Cc3cccc(C)c3)c2cc1OC", "active"),
    ("COc1cc2c3nnc(-c4ccccc4)c-3cn(Cc3ccccc3)c2cc1OC", "active"),
    ("Cc1cccc(C)c1-c1nc(C(=O)N[C@@H](CC(C)C)C(=O)O)cn1-c1ccnc2cc(Cl)ccc12", "active"),
]

Prompt line: What call does the record list for COc1cc2nc(C3CCC3)nc(N3CCN(c4ccccc4C)CC3)c2cc1OC ?
Response line: inactive

Prompt line: For COc1cc2nc(C)nc(N3CCN(c4ccccc4OC)CC3)c2cc1OC , which call appears in the assay record?
Response line: inactive

Prompt line: Each compound tested received a call. Report the one for COc1ccc(-c2nnc3c4cc(OC)c(OC)cc4n(Cc4ccc(C)cc4)cc2-3)cc1 .
Response line: inactive

Prompt line: Query: recorded result category for COc1cc2nc(-c3ccccc3)nc(N3CCN(c4ccccc4OC)CC3)c2cc1OC in this test
Response line: active

Each recorded value in this set is attributed to PubChem BioAssay AID602466.
